Cited source for all entries: the supplement of paper PMC10567573

B1: C2orf65 (parent)
chain: QLDWDELETNQQHFHALCHSLLVS

- Variants of: B1
- Assay Method Text: protein stability index of a GFP-peptide fusion (GPS, HEK-293T) (PSI 1-6); higher = more stable;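 note: lentivirally expressed fusions sorted by FACS into six bins by GFP to DsRed ratio, PSI derived from sequencing read proportions per bin multiplied by bin number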
- Condition Description: c terminus: a fixed tail appended
Quantity Name: protein stability index
Answer with a bare number; do not write a unit.

Please review the following examples before continuing.
QLDYDELETNQQHFHALCHSLLVS : 2.56
QLDWCELETNQQHFHALCHSLLVS : 1.55

input: Returns the measured protein stability index for the input variant. Input: QDDWDELETNQQHFHALCHSLLVS
output: 2.55

input: Try the variant QTDWDELETNQQHFHALCHSLLVS
output: 2.02

input: Try the variant QLDWDELETNNQHFHALCHSLLVS
output: 2.34

input: Try the variant QLDWDELMTNQQHFHALCHSLLVS
output: 2.73

input: Try the variant QLHWDELETNQQHFHALCHSLLVS
output: 1.92

input: Try the variant QLDWDELETNQKHFHALCHSLLVS
output: 1.84

input: Try the variant QLDWDELEINQQHFHALCHSLLVS
output: 1.69

input: Try the variant QLDWDALETNQQHFHALCHSLLVS
output: 2.04

input: Try the variant QLDWDELETMQQHFHALCHSLLVS
output: 2.18

input: Try the variant QLDWDELTTNQQHFHALCHSLLVS
output: 1.61

input: Try the variant WLDWDELETNQQHFHALCHSLLVS
output: 1.51

input: Try the variant QLDWIELETNQQHFHALCHSLLVS
output: 1.58

input: Try the variant QLDWDTLETNQQHFHALCHSLLVS
output: 1.82

input: Try the variant QLDWDELETNQQHFLALCHSLLVS
output: 1.61

input: Try the variant SLDWDELETNQQHFHALCHSLLVS
output: 2.21
